All values here come from patent US9540336B2.

- method_notes: Solubility and cationic/uncharged species in detergents (Triton X-100, Na-lauroyl sarcosine)
- run_conditions: pH 3.5, aqueous with cosolvent or surfactant or cyclodextrin

[
  {
    "compound": "CC(C)N=c1cc2n(-c3ccc(Cl)cc3)c3ccccc3nc-2cc1Nc1ccc(Cl)cc1 [CFZ]",
    "solubility": "≥ 50 µM"
  }
]

---

- method_notes: Solubility in buffered water as a function of pH (centrifugation, spectroscopy)
- Type: physicochemical
- run_conditions: buffered water (0.1 M buffer), 23 °C, pH 7, aqueous buffer, kinetic from dmso stock; neutral pH; 50 μM added, overnight, centrifuged
assay_endpoint: solubility

[
  {
    "smiles_data": "CC(C)N=c1cc2n(-c3ccc(Cl)cc3)c3ccccc3nc-2cc1Nc1ccc(Cl)cc1",
    "assay_endpoint": "solubility",
    "readout_value": "< 2 µM"
  }
]
